tested system: Bis(5'-adenosyl)-triphosphatase (Homo sapiens, UniProt P49789)
Sequence (P49789 whole entry): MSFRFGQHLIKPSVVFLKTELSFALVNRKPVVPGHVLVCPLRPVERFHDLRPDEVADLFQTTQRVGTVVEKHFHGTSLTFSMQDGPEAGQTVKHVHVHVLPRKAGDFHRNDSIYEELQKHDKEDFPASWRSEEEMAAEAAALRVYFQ
protocol text: Inhibition of human FHIT expressed in Escherichia coli BL21(DE3)-RIL cells using AP3A as substrate pretreated for 10 mins followed by substrate addition and measured after 1 hr by HPLC analysis
pIC50: −log10 of the molar value.

{"columns": ["compound", "pIC50"],
 "data": [
  ["CC1(C)CC(=O)C2=C(C1)NC1=C(C(=O)c3ccccc31)C2c1ccc(Br)cc1 (stereo unspecified)", 7.31]
]}

---

# maps each entry to its log10 IC50
tested system: Bis(5'-adenosyl)-triphosphatase (Homo sapiens, UniProt P49789)
protocol text: Inhibition of recombinant human FHIT incubated for 1hr in presence of tokyogreen-labeled CMP probe by fluorescence based analysis
readout type: log10 IC50 (log10 of the value in µM)

{"columns": ["compound", "log10 IC50"],
 "data": [
  ["COc1c(OCC(=O)NO)ccc2c3c(c(=O)oc12)CCCC3", 0.45],
  ["CCOC(=O)c1c(C)sc(N)c1C(=O)OCC", 0.00],
  ["Cc1cc(=O)oc2c(C)c(OCC(=O)NO)ccc12", 1.61],
  ["Cc1c(OCc2nn[nH]n2)ccc2c3c(c(=O)oc12)CCC(C)C3 (configuration not stated)", 0.67],
  ["NNC(=O)c1nn(-c2ccccc2)c(=O)cc1O", 0.60],
  ["Cc1ccc(C(=O)Nc2ccc(S(=O)(=O)O)c3cc(S(=O)(=O)O)cc(S(=O)(=O)O)c23)cc1NC(=O)c1cccc(NC(=O)Nc2cccc(C(=O)Nc3cc(C(=O)Nc4ccc(S(=O)(=O)O)c5cc(S(=O)(=O)O)cc(S(=O)(=O)O)c45)ccc3C)c2)c1", 1.70],
  ["NNC(=O)COc1ccc2c3c(c(=O)oc2c1Br)CCCC3", 0.60],
  ["CCc1c(OCC(=O)NO)ccc2c3c(c(=O)oc12)CCCC3", 0.72],
  ["O=C(COc1cc2oc(=O)c3c(c2cc1Cl)CCCC3)NO", 1.70],
  ["Cc1c(OCC(=O)NO)ccc2c3c(c(=O)oc12)CCCC3", 0.28],
  ["O=C(COc1ccc2c3c(c(=O)oc2c1)CCCC3)NO", 0.74],
  ["COCC(=O)N1CC[C@@H]2[C@H]1C(=O)NC[C@H](CCC(=O)OC)N2C", 0.63],
  ["O=C(O)c1ccc2[nH]c(-c3ccnc(-c4cccnc4)c3)nc2c1", 0.20],
  ["O=C(COc1ccc2c3c(c(=O)oc2c1Br)CCCC3)NO", -0.92],
  ["CN1C(=O)N/C(=C/c2cccn2-c2ccc(C(=O)O)cc2)C1=O", -0.11],
  ["Cc1c(OCC(=O)O)ccc2c3c(c(=O)oc12)CCCC3", 1.04],
  ["O=C(Cn1cc([N+](=O)[O-])ccc1=O)NC(=O)NCc1ccco1", 0.54],
  ["Cc1c(OCc2nn[nH]n2)ccc2c3c(c(=O)oc12)CCCC3", 0.70],
  ["O=C(COc1cc2oc(=O)c3c(c2cc1Br)CCCC3)NO", 1.26],
  ["CC1(C)CC(=O)C2=C(C1)NC1=C(C(=O)c3ccccc31)C2c1ccc(Br)cc1 (configuration not stated)", 0.94],
  ["O=C(O)c1ccc(/C=N/NC(=O)c2nc(-c3ccccc3)n(-c3ccccc3)n2)cc1", 0.57],
  ["CC(=O)c1c(OCC(=O)NO)ccc2c3c(c(=O)oc12)CCCC3", 0.91]
]}
